# assaySystem: Free fatty acid receptor 1 (Homo sapiens)
# methodNotes: Agonist activity at human GPR40 expressed in CHOK1 cells by fluorescence assay
# Format: functional, cell-based, CHO-K1
Measured EC50 by item
Entry rule: numbers only, all in nM.

> print(dat)
                                        smi  quantitativereadout
1  CCCCCCCCCCCC(=O)c1c(O)cc(O)c(C(=O)CCCCCCCCCCC)c1O                   70
2   CC(C)CC(=O)c1c(O)cc(O)c(C(=O)CC(C)C)c1O                 6000
3             CCCCC/C=C\C/C=C\CCCCCCCC(=O)O                  540

Measured on Free fatty acid receptor 1 (Homo sapiens), `CC(C)C(=O)c1c(O)cc(O)c(C(=O)C(C)C)c1O` has a documented EC50 of 8000

Kindly note: Free fatty acid receptor 1 (Homo sapiens), `CCCCc1c(O)c(C(=O)CC(C)C)c(O)c(C(=O)CC(C)C)c1O` , EC50 value reported: 970

----------
# assaySystem: Free fatty acid receptor 1 (Homo sapiens, UniProt O14842)
# Sequence (O14842 whole entry): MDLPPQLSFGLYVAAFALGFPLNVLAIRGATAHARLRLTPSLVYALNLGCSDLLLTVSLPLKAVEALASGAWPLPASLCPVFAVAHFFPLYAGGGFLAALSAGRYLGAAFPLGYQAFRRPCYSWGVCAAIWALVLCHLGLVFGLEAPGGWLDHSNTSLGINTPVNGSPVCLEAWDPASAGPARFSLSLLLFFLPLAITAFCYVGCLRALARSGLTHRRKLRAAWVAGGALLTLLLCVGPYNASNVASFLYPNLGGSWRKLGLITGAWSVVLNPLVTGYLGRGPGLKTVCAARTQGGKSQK
# methodNotes: Agonist activity at human GPR40 expressed in CHOK1 cells assessed as effect on calcium flux at 10 uM by fluorescence assay
# Type: functional, cell-based
# details: CHO-K1
The source made the active and inactive calls. The calls are words filed in the database; no cut-off is given here.
Use one of these outcomes when replying: active, inactive

Answered examples (5):
> print(dat)
                                        smi  labelclass
1  CCCCCCCCCCCC(=O)c1c(O)cc(O)c(C(=O)CCCCCCCCCCC)c1O      active
2  CC(C)CC(=O)c1c(O)cc(OCCO)c(C(=O)CC(C)C)c1O    inactive
3  O=C(/C=C/C(=O)c1c(O)cc(O)cc1O)c1c(O)cc(O)cc1O    inactive
4  CCCCc1c(O)c(C(=O)CC(C)C)c(O)c(C(=O)CC(C)C)c1O      active
5  CC(C)CC(=O)c1c(O)c(Cc2c(O)c(C(=O)CC(C)C)c(O)c(C(=O)CC(C)C)c2O)c(O)c(C(=O)CC(C)C)c1O    inactive

Which outcome did this test record for the molecule `CCCCOc1cc(OCCCC)c(C(=O)CC(C)C)c(O)c1C(=O)CC(C)C` ?
inactive

Which outcome did this test record for the molecule `CC(C)CC(=O)c1c(O)cc(O)c(C(=O)CCCC(=O)O)c1O` ?
inactive

What is the recorded call for this molecule in the test? `O=C(CCl)c1c(O)cc(O)c(C(=O)CCl)c1O`
inactive

Per the records of this test, what outcome belongs to `CCCCOc1cc(O)c(C(=O)CC(C)C)c(OCCCC)c1C(=O)CC(C)C` ?
inactive

Short answer needed: outcome of this test for `O=C(O)CCCC(=O)c1c(O)cc(O)cc1O` ?
inactive

Would you mind telling me which call this test gave `CCCCC/C=C\C/C=C\CCCCCCCC(=O)O` ?
active

Called result for `CCCCOc1cc(O)c(C(=O)CC(C)C)c(O)c1C(=O)CC(C)C`
inactive

What was the test verdict on `CCCCCCCC(=O)c1c(O)cc(O)c(C(=O)CCCCCCC)c1O` ?
inactive

Could you please tell me the result logged for `CC(C)CC(=O)c1c(O)cc(O)cc1O` in this assay?
inactive

How was `CCCCCCCCCCCCCCCCCC(=O)c1c(O)cc(O)c(C(=O)CCCCCCCCCCCCCCCCC)c1O` classified in this test?
inactive

Short answer needed: outcome of this test for `CCCCCCCCCCCCCCCC(=O)c1c(O)cc(O)c(C(=O)CCCCCCCCCCCCCCC)c1O` ?
inactive

State the result this test recorded for `CC(C)CC(=O)c1c(O)cc(O)c(C(=O)CC(C)C)c1O` .
active

What call does the record list for `CC(C)C(=O)c1c(O)cc(O)c(C(=O)C(C)C)c1O` ?
active

----------
# assaySystem: Free fatty acid receptor 1 (Mus musculus, UniProt Q76JU9)
# Sequence (Q76JU9 whole entry): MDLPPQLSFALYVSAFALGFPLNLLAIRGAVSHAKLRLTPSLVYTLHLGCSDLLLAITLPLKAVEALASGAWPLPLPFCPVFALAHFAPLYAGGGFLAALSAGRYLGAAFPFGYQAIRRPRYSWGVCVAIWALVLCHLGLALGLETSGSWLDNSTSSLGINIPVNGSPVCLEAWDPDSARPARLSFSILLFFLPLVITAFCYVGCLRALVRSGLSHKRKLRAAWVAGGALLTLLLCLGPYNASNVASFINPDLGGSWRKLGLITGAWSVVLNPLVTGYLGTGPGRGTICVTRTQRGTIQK
# methodNotes: Agonist activity at mouse GPR40 expressed in HEK293 cells
parameterMeasured: EC50
Your reply should be a number followed by the unit it is expressed in.

Please fill in: EC50 reported for CCCCCCCCC1SC(=O)NC1=O (stereo unspecified) = 7.94 µM

----------
# assaySystem: Free fatty acid receptor 1 (Homo sapiens, UniProt O14842)
# methodNotes: Agonist activity at GPR40
# Assay type: functional
EC50 reference
Answer format: numeric, nM implied, no suffix.

Please review the following examples before continuing.
> print(dat)
                                   compound  quantitativereadout
1  O=C(O)CCc1ccc(OCc2ccc(CC(CCc3ccccn3)c3nc(-c4ccccc4)cs3)cc2)cc1 (centres undefined)                   19
2  Cc1cccc(C)c1-c1cccc(COc2ccc(Cn3oc(=O)[nH]c3=O)cc2)c1                  260
3  CC#CC(CC(=O)O)c1ccc(OC2CCc3cc(-c4cccs4)ccc32)cc1 (centres undefined)                   10

Then there is this compound:
Quick note, EC50 for `CCCCC/C=C\C/C=C\CCCCCCCC(=O)O` landed at 540

----------
# assaySystem: UniProtKB O14842
# methodNotes: Agonist activity at human GPR40 expressed in CHOK1 cells assessed as maximal response at 10 uM by fluorescence assay relative to linoleic acid
# Assay type: functional, cell-based
# details: CHO-K1
parameterMeasured: Activity (%)
Express the result in % but write the number alone.

Consider the worked cases shown below.
> print(dat)
                                   molecule  parametermeasured  unitabbreviation  quantitativereadout
1  CCCCCCCCCCCC(=O)c1c(O)cc(O)c(C(=O)CCCCCCCCCCC)c1O [DIDODECANOYLPHLOROGLUCINOL]           Activity                 %                  100
2     CC(C)C(=O)c1c(O)cc(O)c(C(=O)C(C)C)c1O           Activity                 %                 88.7
3   CC(C)CC(=O)c1c(O)cc(O)c(C(=O)CC(C)C)c1O           Activity                 %                  102

Below: the item to evaluate.
The value of Activity measured for the molecule `CCCCc1c(O)c(C(=O)CC(C)C)c(O)c(C(=O)CC(C)C)c1O` turned out to be 84.5

----------
# fold change (FC) listing for each entry below
# assaySystem: Free fatty acid receptor 1 (Homo sapiens, UniProt O14842)
# methodNotes: Agonist activity at human GPR40 expressed in CHOK1 cells assessed as fold increase in calcium flux at 10 uM by fluorescence assay relative to control
# Format: functional, cell-based
# details: CHO-K1
No unit in the answer, please; the number alone is enough.

> print(dat)
                                   compound                               assaysystem  quantitativereadout
1  CCCCCCCCCCCCCCCC(=O)c1c(O)cc(O)c(C(=O)CCCCCCCCCCCCCCC)c1O  Free fatty acid receptor 1 (Homo sapiens, UniProt O14842)                 1.02
2  CCCCOc1cc(O)c(C(=O)CC(C)C)c(OCCCC)c1C(=O)CC(C)C  Free fatty acid receptor 1 (Homo sapiens, UniProt O14842)                 1.46
3  CCCCCCCC(=O)c1c(O)cc(O)c(C(=O)CCCCCCC)c1O  Free fatty acid receptor 1 (Homo sapiens, UniProt O14842)                 1.21

fold change (FC) on Free fatty acid receptor 1 (Homo sapiens, UniProt O14842) for `O=C(O)CCCC(=O)c1c(O)cc(O)cc1O` is 1

Entry `CC(C)C(=O)c1c(O)cc(O)c(C(=O)C(C)C)c1O` under Free fatty acid receptor 1 (Homo sapiens, UniProt O14842) had fold change (FC) of 2.31

----------
# assaySystem: Free fatty acid receptor 1 (Homo sapiens, UniProt O14842)
# methodNotes: Agonist activity at human GPR40 expressed in CHOK1 cells assessed as fold increase in calcium flux at 10 uM by fluorescence assay relative to control
# Assay type: functional, cell-based
# details: CHO-K1
parameterMeasured: fold change (FC)
Output spec: single numeric token, no unit.

For orientation, consider the following solved cases.
> print(dat)
                                        smi  quantitativereadout
1  CC(C)CC(=O)c1c(O)c(Cc2c(O)c(C(=O)CC(C)C)c(O)c(C(=O)CC(C)C)c2O)c(O)c(C(=O)CC(C)C)c1O                 1.11
2  CC(C)CC(=O)c1c(O)cc(OCCO)c(C(=O)CC(C)C)c1O                 1.02
3         O=C(CCl)c1c(O)cc(O)c(C(=O)CCl)c1O                 1.21
4  CC(C)CC(=O)c1c(O)cc(O)c(C(=O)CCCC(=O)O)c1O                    1
5                CC(C)CC(=O)c1c(O)cc(O)cc1O                 1.12
6   CC(C)CC(=O)c1c(O)cc(O)c(C(=O)CC(C)C)c1O                 1.89

Could you now look at the following molecule, please?
fold change (FC) reading for `CCCCCCCCCCCCCCCCCC(=O)c1c(O)cc(O)c(C(=O)CCCCCCCCCCCCCCCCC)c1O` : 1.19
